Tested on: DIPGX7 (H3.3 K27M diffuse intrinsic pontine glioma line)
Procedure Details: growth inhibition (% activity, log2 RLU normalised to DMSO / staurosporine); higher = more growth inhibition
Experimental Context: 33 µM
Reported Metric: growth inhibition (%)

Item Smiles: COC(=O)C1=CO[C@@H](O)[C@@H]2C(CO)=CC[C@H]12
Reported Metric: growth inhibition
Data Value: -0.199

Item Smiles: Fc1ccc(C(c2ccc(F)cc2)N2CCN(C/C=C/c3ccccc3)CC2)cc1
Reported Metric: growth inhibition
Data Value: 6.22

Item Smiles: Cc1nc2n(c(=O)c1CCN1CCC(c3noc4cc(F)ccc34)CC1)CCCC2
Reported Metric: growth inhibition
Data Value: 3.37

Item Smiles: C[C@]12CCC(=O)C=C1CC[C@@H]1[C@@H]2[C@@H](O)C[C@@]2(C)[C@H]1CC[C@]2(O)C(=O)CO
Reported Metric: growth inhibition
Data Value: 0.297

Item Smiles: NC(=O)c1ncn([C@@H]2O[C@H](CO)[C@@H](O)[C@H]2O)n1
Reported Metric: growth inhibition
Data Value: 0.987

Item Smiles: N=C(N)NC(=N)NCCc1ccccc1
Reported Metric: growth inhibition
Data Value: 2.16

Item Smiles: C=C[C@]1(C)C[C@@H](OC(=O)CSC(C)(C)CNC(=O)[C@H](N)C(C)C)[C@]2(C)[C@H](C)CC[C@]3(CCC(=O)[C@H]32)[C@@H](C)[C@@H]1O
Reported Metric: growth inhibition
Data Value: 4.74

Item Smiles: O=C1NCC2(CCN(CCc3ccccc3)CC2)O1
Reported Metric: growth inhibition
Data Value: 0.908

Item Smiles: CC[C@@H]([C@H](C)O)n1ncn(-c2ccc(N3CCN(c4ccc(OC[C@@H]5CO[C@@](Cn6cncn6)(c6ccc(F)cc6F)C5)cc4)CC3)cc2)c1=O
Reported Metric: growth inhibition
Data Value: -0.181
